tested_target: T1, human CD131 (human, UniProt P32927 17-897)
T1 sequence: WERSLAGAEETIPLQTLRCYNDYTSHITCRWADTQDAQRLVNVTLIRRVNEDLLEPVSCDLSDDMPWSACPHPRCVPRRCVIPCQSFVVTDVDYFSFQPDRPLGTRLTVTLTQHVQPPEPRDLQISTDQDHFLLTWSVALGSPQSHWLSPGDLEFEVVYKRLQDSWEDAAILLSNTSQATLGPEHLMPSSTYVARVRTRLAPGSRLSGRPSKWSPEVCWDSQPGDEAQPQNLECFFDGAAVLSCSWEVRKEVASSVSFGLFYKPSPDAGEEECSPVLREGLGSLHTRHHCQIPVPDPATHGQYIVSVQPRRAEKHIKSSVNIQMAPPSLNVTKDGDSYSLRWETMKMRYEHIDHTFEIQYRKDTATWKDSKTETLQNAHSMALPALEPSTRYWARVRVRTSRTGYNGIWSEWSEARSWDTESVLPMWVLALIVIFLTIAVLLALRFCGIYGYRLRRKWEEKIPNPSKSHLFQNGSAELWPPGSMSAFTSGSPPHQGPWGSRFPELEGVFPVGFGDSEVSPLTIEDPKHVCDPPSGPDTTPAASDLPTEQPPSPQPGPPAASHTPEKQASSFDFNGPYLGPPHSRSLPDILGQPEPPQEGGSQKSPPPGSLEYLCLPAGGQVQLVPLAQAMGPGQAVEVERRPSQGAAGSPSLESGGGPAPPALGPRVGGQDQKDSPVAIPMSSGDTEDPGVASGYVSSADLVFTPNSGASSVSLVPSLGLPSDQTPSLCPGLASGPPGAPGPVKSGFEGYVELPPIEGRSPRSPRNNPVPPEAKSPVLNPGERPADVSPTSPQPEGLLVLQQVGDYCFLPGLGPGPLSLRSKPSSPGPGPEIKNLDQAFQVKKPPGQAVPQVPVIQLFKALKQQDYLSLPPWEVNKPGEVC
test_method_notes: cell-based or functional assay
endpoint_label: IC50 GM-CSF, TF-1 proliferation (nM)
Record the value in nM, omitting the unit from your answer.

9A2-VR39.109 (antibody, V domains shown) VH: EVQLLESGGGLVQPGGSLRLSCAASGFTFMWYHHIWVRQAPGKGLEWVSSINGRGRVTYYADSVKGRFTISRDNSKNTLYLQMNSLRAEDTAVYYCARFYDSFFDIWGQGTMVTVSS VL: DIQMTQSPSSVSASVGDRVTITCRASQGISSWLAWYQQKPGKAPKLLIYAASSLQSGVPSRFSGSGSGTDFTLTISSLQPEDFATYYCQQANSFPITFGQGTRLEIKR	0.24
9A2-VR39.04 (antibody, V domains shown) VH: EVQLLESGGGLVQPGGSLRLSCAASGFTFNWFQHIWVRQAPGKGLEWVSSINGRGRVTYYADSVKGRFTISRDNSKNTLYLQMNSLRAEDTAVYYCARFYDSFFDIWGQGTMVTVSS VL: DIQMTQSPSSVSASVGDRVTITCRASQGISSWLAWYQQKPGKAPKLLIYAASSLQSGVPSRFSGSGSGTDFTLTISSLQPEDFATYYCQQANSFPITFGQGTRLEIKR	30.4
9A2-VR24.07 (antibody, V domains shown) VH: EVQLLESGGGLVQPGGSLRLSCAASGFTFPWYRVHWVRQAPGKGLEWVSSIHTHRNSTYYADSVKGRFTISRDNSKNTLYLQMNSLRAEDTAVYYCARFYDSFFDIWGQGTMVTVSS VL: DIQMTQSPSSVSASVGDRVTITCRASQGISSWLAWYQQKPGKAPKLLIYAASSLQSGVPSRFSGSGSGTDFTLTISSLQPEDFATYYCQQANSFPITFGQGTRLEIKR	1.17

Next binder, IC50 GM-CSF, TF-1 proliferation to be filled in.
Q. Consider the binder 9A2-VR24.56 (antibody, V domains shown) VH: EVQLLESGGGLVQPGGSLRLSCAASGFTFPWYRVHWVRQAPGKGLEWVSSIRSSGGFTYYNPAVRGRFTISRDNSKNTLYLQMNSLRAEDTAVYYCARFYDSFFDIWGQGTMVTVSS VL: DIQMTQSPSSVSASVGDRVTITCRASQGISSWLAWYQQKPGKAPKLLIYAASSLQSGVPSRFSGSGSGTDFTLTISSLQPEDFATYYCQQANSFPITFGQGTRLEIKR and give its measured IC50 GM-CSF, TF-1 proliferation.
A. 0.48
